These entries and their values trace back to patent US8642609B2.

- target: ΔF508-CFTR (Homo sapiens, UniProt P13569, DEL508-508)
- Construct: expressed in transfected cells
- Sequence (P13569 with tags, fused parts or gaps DEL508-508): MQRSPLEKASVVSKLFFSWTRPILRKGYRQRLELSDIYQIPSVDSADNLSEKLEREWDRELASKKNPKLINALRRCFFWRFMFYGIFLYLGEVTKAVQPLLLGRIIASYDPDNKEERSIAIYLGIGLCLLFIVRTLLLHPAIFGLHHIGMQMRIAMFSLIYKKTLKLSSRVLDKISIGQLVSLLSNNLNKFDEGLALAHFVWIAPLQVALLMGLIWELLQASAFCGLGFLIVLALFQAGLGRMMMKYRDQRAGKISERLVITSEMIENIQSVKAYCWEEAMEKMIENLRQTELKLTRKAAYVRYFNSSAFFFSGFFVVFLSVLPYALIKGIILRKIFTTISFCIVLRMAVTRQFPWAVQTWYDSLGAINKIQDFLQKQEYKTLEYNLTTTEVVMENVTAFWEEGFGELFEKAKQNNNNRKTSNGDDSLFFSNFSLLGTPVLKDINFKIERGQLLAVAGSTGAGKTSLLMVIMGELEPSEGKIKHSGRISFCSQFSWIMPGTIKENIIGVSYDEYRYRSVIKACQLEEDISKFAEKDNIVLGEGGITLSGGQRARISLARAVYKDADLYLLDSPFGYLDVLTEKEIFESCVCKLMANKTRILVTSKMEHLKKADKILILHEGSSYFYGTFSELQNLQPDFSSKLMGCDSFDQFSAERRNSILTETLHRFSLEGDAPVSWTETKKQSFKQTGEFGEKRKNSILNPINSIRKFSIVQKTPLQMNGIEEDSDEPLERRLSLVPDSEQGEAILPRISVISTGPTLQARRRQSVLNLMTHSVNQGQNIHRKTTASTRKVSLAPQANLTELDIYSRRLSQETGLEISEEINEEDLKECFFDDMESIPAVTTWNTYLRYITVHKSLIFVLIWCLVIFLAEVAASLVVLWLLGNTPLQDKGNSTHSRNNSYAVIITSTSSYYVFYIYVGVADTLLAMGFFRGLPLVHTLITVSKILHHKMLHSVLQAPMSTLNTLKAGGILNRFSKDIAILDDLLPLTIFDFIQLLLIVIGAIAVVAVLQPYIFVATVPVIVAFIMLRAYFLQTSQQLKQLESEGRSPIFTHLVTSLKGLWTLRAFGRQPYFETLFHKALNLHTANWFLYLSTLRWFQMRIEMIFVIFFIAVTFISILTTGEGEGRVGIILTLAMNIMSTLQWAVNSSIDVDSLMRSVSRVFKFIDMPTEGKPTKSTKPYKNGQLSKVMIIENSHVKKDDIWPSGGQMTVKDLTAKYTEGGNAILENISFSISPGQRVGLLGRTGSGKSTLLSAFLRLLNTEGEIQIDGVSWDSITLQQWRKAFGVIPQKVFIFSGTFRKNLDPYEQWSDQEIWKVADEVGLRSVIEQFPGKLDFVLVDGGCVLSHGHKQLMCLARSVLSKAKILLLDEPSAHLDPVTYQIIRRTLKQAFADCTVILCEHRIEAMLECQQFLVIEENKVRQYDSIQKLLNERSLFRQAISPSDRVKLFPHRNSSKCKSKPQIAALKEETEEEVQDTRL
- test_summary: Membrane potential optical assay (FRET/VIPR), identification of correction compounds
- Type: cell-based
- assay_conditions: relative efficacy
Please go through the items and note down their Emax.

Qu. Identify the measured Emax of CC(c1nc2ccccc2c(=O)n1C)N1CCN(S(=O)(=O)c2c(Cl)nc3sccn23)CC1 (centres unmarked) for ΔF508-CFTR (Homo sapiens, UniProt P13569, DEL508-508).
Ans. < 25%

Qu. Identify the measured Emax of CC(c1nc2cc(Cl)ccc2c(=O)n1C)N1CCN(S(=O)(=O)c2cccc(Cl)c2)CC1 (centres unmarked) for ΔF508-CFTR (Homo sapiens, UniProt P13569, DEL508-508).
Ans. 25 to 100%

Qu. Identify the measured Emax of COc1ccc(S(=O)(=O)N2CCN(C(C)c3nc(N4CCN(C(C)=O)CC4)c4ccccc4n3)CC2)cc1 (centres unmarked) for ΔF508-CFTR (Homo sapiens, UniProt P13569, DEL508-508).
Ans. 25 to 100%

Qu. Identify the measured Emax of CC(c1nc2ccccc2c(=O)n1C)N1CCN(S(=O)(=O)c2cccc(Cl)c2)CC1 (centres unmarked) for ΔF508-CFTR (Homo sapiens, UniProt P13569, DEL508-508).
Ans. 25 to 100%

Qu. Identify the measured Emax of C=Cc1ccc(S(=O)(=O)N2CCN(C(C)c3nc4ccccc4c(=O)n3C)CC2)cc1 (centres unmarked) for ΔF508-CFTR (Homo sapiens, UniProt P13569, DEL508-508).
Ans. 25 to 100%

Qu. Identify the measured Emax of Cc1cccc(C(=O)N2CCN(C(C)c3nc4ccccc4c(=O)n3C)CC2)c1 (centres unmarked) for ΔF508-CFTR (Homo sapiens, UniProt P13569, DEL508-508).
Ans. < 25%

Qu. Identify the measured Emax of CC(c1nc2ccccc2c(=O)n1C)N1CCN(S(=O)(=O)c2ccc(-c3cc(C(F)(F)F)n(C)n3)s2)CC1 (centres unmarked) for ΔF508-CFTR (Homo sapiens, UniProt P13569, DEL508-508).
Ans. < 25%

Qu. Identify the measured Emax of CC(c1nc2ccccc2c(=O)n1C)N1CCN(C(=O)c2ccccc2Cl)CC1 (centres unmarked) for ΔF508-CFTR (Homo sapiens, UniProt P13569, DEL508-508).
Ans. < 25%

---

- target: ΔF508-CFTR (Homo sapiens, UniProt P13569, DEL508-508)
- Construct: expressed in transfected cells
- test_summary: Membrane potential optical assay (FRET/VIPR), identification of correction compounds
- Assay type: cell-based
- assay_conditions: relative efficacy
reported_metric: Emax

Qu. Identify the measured Emax of COc1ccc(C(=O)N2CCN(C(C)c3nc4ccc(Cl)cc4c(=O)n3C)CC2)cc1OC (centres unmarked) [compound 77] for ΔF508-CFTR (Homo sapiens, UniProt P13569, DEL508-508).
Ans. < 25%

Qu. Identify the measured Emax of CC(c1nc2ccccc2c(=O)n1C)N1CCN(S(=O)(=O)c2ccccc2C#N)CC1 (centres unmarked) [compound 259] for ΔF508-CFTR (Homo sapiens, UniProt P13569, DEL508-508).
Ans. < 25%

Qu. Identify the measured Emax of Cn1c(CN2CCN(S(=O)(=O)c3ccccc3)CC2)nc2ccc(Cl)cc2c1=O [compound 65] for ΔF508-CFTR (Homo sapiens, UniProt P13569, DEL508-508).
Ans. < 25%

Qu. Identify the measured Emax of COc1ccc(S(=O)(=O)N2CCN(C(C)c3ncc(C(N)=O)c(N4CCCCC4)n3)CC2)cc1 (centres unmarked) [compound 356] for ΔF508-CFTR (Homo sapiens, UniProt P13569, DEL508-508).
Ans. 25 to 100%

Qu. Identify the measured Emax of CC(NC[C@@H]1CCCCN1S(=O)(=O)c1ccc(Cl)cc1)c1nc2ccccc2c(=O)n1C (some centres unmarked) [compound 214] for ΔF508-CFTR (Homo sapiens, UniProt P13569, DEL508-508).
Ans. < 25%

Qu. Identify the measured Emax of CCCn1c(C(C)N2CCN(C(=O)CSc3ccccc3)CC2)nc2ccccc2c1=O (centres unmarked) [compound 46] for ΔF508-CFTR (Homo sapiens, UniProt P13569, DEL508-508).
Ans. 25 to 100%

Qu. Identify the measured Emax of CC(c1nc(N2CCCCC2)c2ccccc2n1)N1CCN(S(=O)(=O)c2ccc(Cl)cc2)CC1 (centres unmarked) [compound 237] for ΔF508-CFTR (Homo sapiens, UniProt P13569, DEL508-508).
Ans. > 100%

Qu. Identify the measured Emax of CC(c1nc2ccccc2c(=O)n1C)N1CCN(S(=O)(=O)c2ccc(OC(F)F)cc2)CC1 (centres unmarked) [compound 293] for ΔF508-CFTR (Homo sapiens, UniProt P13569, DEL508-508).
Ans. > 100%

Qu. Identify the measured Emax of CCSc1ccc(S(=O)(=O)N2CCN(C(C)c3nc4ccccc4c(=O)n3C)CC2)cc1 (centres unmarked) [compound 351] for ΔF508-CFTR (Homo sapiens, UniProt P13569, DEL508-508).
Ans. < 25%

Qu. Identify the measured Emax of CC(c1nc2ccc(Cl)cc2c(=O)n1C)N1CCN(c2ccc(Cl)cc2)CC1 (centres unmarked) [compound 44] for ΔF508-CFTR (Homo sapiens, UniProt P13569, DEL508-508).
Ans. 25 to 100%

Qu. Identify the measured Emax of CC(c1nc2ccc(Br)cc2c(=O)n1C)N1CCN(S(=O)(=O)c2ccc(Br)cc2)CC1 (centres unmarked) [compound 118] for ΔF508-CFTR (Homo sapiens, UniProt P13569, DEL508-508).
Ans. 25 to 100%

Qu. Identify the measured Emax of COc1ccc(S(=O)(=O)N2CCN(C(C)c3nc(OC4CCCCC4)c4ccccc4n3)CC2)cc1 (centres unmarked) [compound 298] for ΔF508-CFTR (Homo sapiens, UniProt P13569, DEL508-508).
Ans. > 100%

Qu. Identify the measured Emax of CCc1nc2ccccc2c(=O)n1C [compound 87] for ΔF508-CFTR (Homo sapiens, UniProt P13569, DEL508-508).
Ans. < 25%

Qu. Identify the measured Emax of COc1ccc(S(=O)(=O)N2CCN(C(C)c3nc(NC4CCCCC4)c4ccccc4n3)CC2)cc1 (centres unmarked) [compound 304] for ΔF508-CFTR (Homo sapiens, UniProt P13569, DEL508-508).
Ans. 25 to 100%

Qu. Identify the measured Emax of CC(c1nc2ccccc2c(=O)n1C)N1CCN(S(=O)(=O)c2ccc(Br)cc2)CC1 (centres unmarked) [compound 51] for ΔF508-CFTR (Homo sapiens, UniProt P13569, DEL508-508).
Ans. > 100%

Qu. Identify the measured Emax of COc1ccc2nc(C(C)N3CCN(S(=O)(=O)c4ccc(C)cc4)CC3)n(C)c(=O)c2c1 (centres unmarked) [compound 134] for ΔF508-CFTR (Homo sapiens, UniProt P13569, DEL508-508).
Ans. 25 to 100%

Qu. Identify the measured Emax of Cc1cccc(S(=O)(=O)N2CCN(C(C)c3nc4cc(Cl)ccc4c(=O)n3C)CC2)c1 (centres unmarked) [compound 96] for ΔF508-CFTR (Homo sapiens, UniProt P13569, DEL508-508).
Ans. 25 to 100%

Qu. Identify the measured Emax of Cc1cccc(S(=O)(=O)N2CCN(C(C)c3nc4ccccc4c(=O)n3C)CC2)c1 (centres unmarked) [compound 48] for ΔF508-CFTR (Homo sapiens, UniProt P13569, DEL508-508).
Ans. 25 to 100%

Qu. Identify the measured Emax of COc1ccc(S(=O)(=O)N2CCN(C(C)c3nc(N4CC=CCC4)c4ccccc4n3)CC2)cc1 (centres unmarked) [compound 392] for ΔF508-CFTR (Homo sapiens, UniProt P13569, DEL508-508).
Ans. > 100%

Qu. Identify the measured Emax of CC(c1nc2ccccc2c(=O)n1C)N1CCN(S(=O)(=O)c2ccc(-c3csnn3)s2)CC1 (centres unmarked) [compound 280] for ΔF508-CFTR (Homo sapiens, UniProt P13569, DEL508-508).
Ans. < 25%

Qu. Identify the measured Emax of CC(c1nc2ccccc2c(=O)n1C)N1CCC(NS(=O)(=O)c2ccc(Cl)cc2)CC1 (centres unmarked) [compound 165] for ΔF508-CFTR (Homo sapiens, UniProt P13569, DEL508-508).
Ans. 25 to 100%

Qu. Identify the measured Emax of CC(c1nc2ccc(C#N)cc2c(=O)n1C)N1CCN(S(=O)(=O)c2ccccc2)CC1 (centres unmarked) [compound 123] for ΔF508-CFTR (Homo sapiens, UniProt P13569, DEL508-508).
Ans. < 25%

Qu. Identify the measured Emax of CCCn1c(CN2CCN(S(=O)(=O)c3ccc(Br)cc3)CC2)nc2ccccc2c1=O [compound 152] for ΔF508-CFTR (Homo sapiens, UniProt P13569, DEL508-508).
Ans. > 100%

Qu. Identify the measured Emax of CC(c1nc2ccc(Cl)cc2c(=O)n1C)N1CCN(C(=O)c2ccc(Cl)cc2)CC1 (centres unmarked) [compound 40] for ΔF508-CFTR (Homo sapiens, UniProt P13569, DEL508-508).
Ans. 25 to 100%

Qu. Identify the measured Emax of CC(c1nc2ccc(Cl)cc2c(=O)n1C)N1CCN(S(=O)(=O)c2ccccc2Cl)CC1 (centres unmarked) [compound 63] for ΔF508-CFTR (Homo sapiens, UniProt P13569, DEL508-508).
Ans. < 25%

Qu. Identify the measured Emax of CC(c1nc2cccc(Cl)c2c(=O)n1C)N1CCN(S(=O)(=O)c2ccccc2)CC1 (centres unmarked) [compound 103] for ΔF508-CFTR (Homo sapiens, UniProt P13569, DEL508-508).
Ans. < 25%

Qu. Identify the measured Emax of COc1ccc(S(=O)(=O)N2CCN(C(C)c3ncc(Br)c(=O)[nH]3)CC2)cc1 (centres unmarked) [compound 378] for ΔF508-CFTR (Homo sapiens, UniProt P13569, DEL508-508).
Ans. < 25%

Qu. Identify the measured Emax of CC(c1nc(N2CCOCC2)c2ccccc2n1)N1CCN(S(=O)(=O)c2ccc(Br)cc2)CC1 (centres unmarked) [compound 223] for ΔF508-CFTR (Homo sapiens, UniProt P13569, DEL508-508).
Ans. > 100%

Qu. Identify the measured Emax of COc1ccc(S(=O)(=O)N2CCN(C(C)c3nc(N4CCC5(CC4)OCCCO5)c4ccccc4n3)CC2)cc1 (centres unmarked) [compound 328] for ΔF508-CFTR (Homo sapiens, UniProt P13569, DEL508-508).
Ans. > 100%

Qu. Identify the measured Emax of CCCn1c(C(C)N2CCN(C(=O)Nc3ccc(OC)cc3OC)CC2)nc2ccccc2c1=O (centres unmarked) [compound 25] for ΔF508-CFTR (Homo sapiens, UniProt P13569, DEL508-508).
Ans. < 25%

Qu. Identify the measured Emax of COc1ccc(S(=O)(=O)N2CCN(C(C)c3nc(N4CCC(C(N)=O)CC4)c4ccccc4n3)CC2)cc1 (centres unmarked) [compound 364] for ΔF508-CFTR (Homo sapiens, UniProt P13569, DEL508-508).
Ans. 25 to 100%

Qu. Identify the measured Emax of CC(c1nc2ccc(Br)cc2c(=O)n1C)N1CCN(S(=O)(=O)c2ccc(Cl)cc2)CC1 (centres unmarked) [compound 117] for ΔF508-CFTR (Homo sapiens, UniProt P13569, DEL508-508).
Ans. 25 to 100%
